Taken from patent US12624044B2.

Molecular target: SMARCA2 (Homo sapiens, UniProt P51531)
Sequence (P51531 whole entry): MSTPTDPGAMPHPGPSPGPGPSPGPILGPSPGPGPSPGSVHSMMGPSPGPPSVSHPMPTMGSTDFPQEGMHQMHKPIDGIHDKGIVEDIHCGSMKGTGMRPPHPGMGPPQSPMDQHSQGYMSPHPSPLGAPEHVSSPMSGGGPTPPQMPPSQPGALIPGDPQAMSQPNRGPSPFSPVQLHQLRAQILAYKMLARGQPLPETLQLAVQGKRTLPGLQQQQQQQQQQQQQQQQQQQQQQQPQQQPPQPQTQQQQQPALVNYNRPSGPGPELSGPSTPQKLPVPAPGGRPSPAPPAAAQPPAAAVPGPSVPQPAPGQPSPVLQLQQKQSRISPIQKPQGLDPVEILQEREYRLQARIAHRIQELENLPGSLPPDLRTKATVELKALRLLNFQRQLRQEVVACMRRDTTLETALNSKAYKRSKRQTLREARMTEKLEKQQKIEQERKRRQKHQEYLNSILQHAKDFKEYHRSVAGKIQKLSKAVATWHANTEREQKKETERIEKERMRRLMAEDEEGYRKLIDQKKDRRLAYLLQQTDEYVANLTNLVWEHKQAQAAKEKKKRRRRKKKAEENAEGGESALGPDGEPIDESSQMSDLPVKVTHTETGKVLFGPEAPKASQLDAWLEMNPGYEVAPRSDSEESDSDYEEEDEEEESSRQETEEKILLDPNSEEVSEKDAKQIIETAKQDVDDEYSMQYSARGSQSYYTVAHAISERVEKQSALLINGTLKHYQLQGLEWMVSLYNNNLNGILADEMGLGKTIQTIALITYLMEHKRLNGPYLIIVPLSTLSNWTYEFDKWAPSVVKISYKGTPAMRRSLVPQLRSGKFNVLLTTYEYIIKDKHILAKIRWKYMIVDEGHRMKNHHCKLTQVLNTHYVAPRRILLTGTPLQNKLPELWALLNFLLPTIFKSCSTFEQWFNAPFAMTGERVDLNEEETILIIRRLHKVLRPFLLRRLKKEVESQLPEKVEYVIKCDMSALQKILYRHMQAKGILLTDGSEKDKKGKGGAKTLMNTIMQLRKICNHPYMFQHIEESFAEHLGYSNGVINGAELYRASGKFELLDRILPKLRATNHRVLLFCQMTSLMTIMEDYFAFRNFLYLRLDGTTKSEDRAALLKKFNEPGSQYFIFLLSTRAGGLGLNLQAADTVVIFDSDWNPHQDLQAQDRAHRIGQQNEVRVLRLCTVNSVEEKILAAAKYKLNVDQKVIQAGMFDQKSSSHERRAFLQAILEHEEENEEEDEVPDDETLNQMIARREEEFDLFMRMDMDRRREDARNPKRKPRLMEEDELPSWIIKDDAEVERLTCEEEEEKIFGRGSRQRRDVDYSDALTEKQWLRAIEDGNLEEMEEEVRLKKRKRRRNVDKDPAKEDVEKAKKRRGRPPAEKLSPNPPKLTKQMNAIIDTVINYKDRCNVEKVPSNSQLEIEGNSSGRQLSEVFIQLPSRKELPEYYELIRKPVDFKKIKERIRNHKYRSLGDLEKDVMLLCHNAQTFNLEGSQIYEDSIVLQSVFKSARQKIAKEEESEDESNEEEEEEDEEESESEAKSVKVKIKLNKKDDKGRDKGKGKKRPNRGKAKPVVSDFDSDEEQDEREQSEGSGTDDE
Assay: MSD SMARCA2 degradation in NCI-H1299 cell line (24 h)
Format: cell-based
Design: HC: NCI-H1299 cells treated with DMSO; host or cells: NCI-H1299
Conditions: NCI-H1299 cells, read-out: SMARCA2 MSD H1299 degradation 24 h: External Abs-DC50
measuredEndpoint: DC50

The compound listed as Cn1c(=O)n(C2CCC(=O)NC2=O)c2ccc(CN3CCC(OCCCN4CCN(Cc5ccc(-c6cc(-c7ccccc7O)nnc6N)cc5)CC4)CC3)cc21 (stereo not shown) [I-158] shows DC50 equal to 100 to 500 nM

The compound listed as Cn1c(=O)n(C2CCC(=O)NC2=O)c2ccc(CCCCCCOc3ccc(CN4CCN(c5cc(-c6ccccc6O)nnc5N)CC4)cc3)cc21 (stereo not shown) [I-86] shows DC50 equal to > 1000 nM

The compound listed as Cn1c(=O)n(C2CCC(=O)NC2=O)c2ccc(C#CCCCCc3cn(Cc4cccc(N5C[C@H]6C[C@@H]5CN6/C=C/C(=O)c5ccccc5O)n4)nn3)cc21 (stereo partly shown) [I-61] shows DC50 equal to > 1000 nM

The compound listed as Cn1c(=O)n(C2CCC(=O)NC2=O)c2cccc(CCCN3CCCC(n4cc(-c5cc(-c6ccccc6O)nnc5N)cn4)C3)c21 (stereo not shown) [I-169] shows DC50 equal to < 100 nM

The compound listed as Cn1c(=O)n(C2CCC(=O)NC2=O)c2cccc(C#CCCc3cn(Cc4cccc(N5C[C@H]6C[C@@H]5CN6/C=C/C(=O)c5ccccc5O)n4)nn3)c21 (stereo partly shown) [I-64] shows DC50 equal to > 1000 nM

The compound listed as CN(Cc1cnc(N2C3CCC2CN(c2cc(-c4ccccc4O)nnc2N)C3)nc1)CC1CCN(c2ccc3c(c2)n(C)c(=O)n3C2CCC(=O)NC2=O)CC1 (stereo not shown) [I-282] shows DC50 equal to < 100 nM

The compound listed as Cc1ncsc1-c1ccc(CNC(=O)[C@@H]2C[C@@H](O)CN2C(=O)[C@@H](NC(=O)CCCCCCCCCN(C)Cc2ccc(N3CCN(c4cc(-c5ccccc5O)nnc4N)CC3)cc2)C(C)(C)C)cc1 [I-213] shows DC50 equal to 501 to 1000 nM

The compound listed as Cn1c(=O)n(C2CCC(=O)NC2=O)c2cccc(CCCOCCOCCOCCOCCN3CCN(Cc4ccc(-c5cc(-c6ccccc6O)nnc5N)cc4)CC3)c21 (stereo not shown) [I-133] shows DC50 equal to > 1000 nM

The compound listed as Cn1c(=O)n(C2CCC(=O)NC2=O)c2cccc(CNCCCCCc3cn(Cc4cccc(N5C[C@H]6C[C@@H]5CN6/C=C/C(=O)c5ccccc5O)n4)nn3)c21 (stereo partly shown) [I-81] shows DC50 equal to > 1000 nM

The compound listed as Cc1ncsc1-c1ccc(CNC(=O)[C@@H]2C[C@@H](O)CN2C(=O)[C@@H](NC(=O)COCCOCCOCCOCCNC(=O)CCCCCCCCOc2ccnc(N3C[C@H]4C[C@@H]3CN4/C=C/C(=O)c3ccccc3O)c2)C(C)(C)C)cc1 [I-223] shows DC50 equal to > 1000 nM

The compound listed as Cn1c(=O)n(C2CCC(=O)NC2=O)c2cccc(CCCO[C@H]3C[C@H](N(C)Cc4ccc(N5CCN(c6cc(-c7ccccc7O)nnc6N)CC5)cc4)C3)c21 (stereo partly shown) [I-121] shows DC50 equal to < 100 nM

The compound listed as Cn1c(=O)n(C2CCC(=O)NC2=O)c2cccc(CCCCCCCN3CCC(n4cc(-c5cc(-c6ccccc6O)nnc5N)cn4)CC3)c21 (stereo not shown) [I-176] shows DC50 equal to < 100 nM

The compound listed as Cn1c(=O)n(C2CCC(=O)NC2=O)c2ccc(CNCCCCCCc3cn(Cc4cccc(N5C[C@H]6C[C@@H]5CN6/C=C/C(=O)c5ccccc5O)n4)nn3)cc21 (stereo partly shown) [I-77] shows DC50 equal to > 1000 nM

The compound listed as Cn1c(=O)n(C2CCC(=O)NC2=O)c2cccc(CCCCCCOc3ccc(CN4CCN(c5cc(-c6ccccc6O)nnc5N)CC4)cc3)c21 (stereo not shown) [I-93] shows DC50 equal to > 1000 nM

The compound listed as Cc1ncsc1-c1ccc(CNC(=O)[C@@H]2C[C@@H](O)CN2C(=O)[C@@H](NC(=O)COCCOCCOCCOCCOCCOCCNC(=O)CCCCCCCCOc2ccnc(N3C[C@H]4C[C@@H]3CN4/C=C/C(=O)c3ccccc3O)c2)C(C)(C)C)cc1 [I-221] shows DC50 equal to > 1000 nM

The compound listed as O=C(CCCCCCCCOc1ccnc(N2C[C@H]3C[C@@H]2CN3/C=C/C(=O)c2ccccc2O)c1)NCCOCCOCCOCCOCCNc1cccc2c1C(=O)N(C1CCC(=O)NC1=O)C2=O (stereo partly shown) [I-18] shows DC50 equal to > 1000 nM

The compound listed as Cc1ncsc1-c1ccc(CNC(=O)[C@@H]2C[C@@H](O)CN2C(=O)[C@@H](NC(=O)CN2CCC(c3nccc(N4C5CCC4CN(c4cc(-c6ccccc6O)nnc4N)C5)n3)CC2)C(C)(C)C)cc1 [I-450] shows DC50 equal to 100 to 500 nM

The compound listed as Cn1c(=O)n(C2CCC(=O)NC2=O)c2ccc(CCCN3CCN(c4cnc(N5C6CCC5CN(c5cc(-c7ccccc7O)nnc5N)C6)nc4)CC3)cc21 (stereo not shown) [I-285] shows DC50 equal to < 100 nM

The compound listed as Cn1c(=O)n(C2CCC(=O)NC2=O)c2ccc(CCCCN3CCC[C@@H](Cn4cc(-c5cc(-c6ccccc6O)nnc5N)cn4)C3)cc21 (stereo partly shown) [I-192] shows DC50 equal to 100 to 500 nM

The compound listed as Cn1c(=O)n(C2CCC(=O)NC2=O)c2cccc(CCCOCCOCCN3CCN(Cc4ccc(-c5cc(-c6ccccc6O)nnc5N)cc4)CC3)c21 (stereo not shown) [I-107] shows DC50 equal to 100 to 500 nM

The compound listed as Cn1c(=O)n(C2CCC(=O)NC2=O)c2ccc(CCCOCCOCCOCCNC(=O)CCCCCCCCOc3ccc(N4C[C@H]5C[C@@H]4CN5/C=C/C(=O)c4ccccc4O)nc3)cc21 (stereo partly shown) [I-4] shows DC50 equal to > 1000 nM

The compound listed as Cn1c(=O)n(C2CCC(=O)NC2=O)c2ccc(CN3CCN(CCO[C@H]4C[C@H](NCc5ccc(N6CCN(c7cc(-c8ccccc8O)nnc7N)CC6)cc5)C4)CC3)cc21 (stereo partly shown) [I-131] shows DC50 equal to > 1000 nM
